All values here come from patent US20220064214A1.

- Measurement description: PK analysis of 8M2D in transgenic mice (APPSWE), plasma
- Condition summary: mouse, in vivo, sc, 250 mg/kg, Day 1, 250 mg/kg, read-out: t1/2 (converted)
Square brackets hold non-standard residues; d marks the D form. Peptide text beside a SMILES is read from it.
Value kind: half-life
Answer with the value and then the unit.

Sure, the documented half-life for CC(=O)N[C@H](CC(=O)O)C(=O)N[C@@H](CCC(=O)O)C(=O)N[C@@H](CCC(=O)O)C(=O)N[C@@H](CCC(=O)O)C(=O)N[C@@H](CC(=O)O)C(=O)N[C@@H](CCC(=O)O)C(=O)N[C@@H](CCC(=O)O)C(=O)N[C@@H](CC(C)C)C(N)=O [8M2D, Ac-dEEEDEEL-NH2] (Ac-[dD]EEEDEEL-NH2) is 2.9 h

* * *

- Measurement description: PK analysis of 8M2D in transgenic mice (APPSWE), plasma
- Condition summary: mouse, in vivo, sc, 50 mg/kg, Day 1, 50 mg/kg, read-out: Vz/F
Square brackets hold non-standard residues; d marks the D form. Peptide text beside a SMILES is read from it.
Value kind: Vd/F (L/kg)
Numbers only, in L/kg.

Form: compound = CC(=O)N[C@H](CC(=O)O)C(=O)N[C@@H](CCC(=O)O)C(=O)N[C@@H](CCC(=O)O)C(=O)N[C@@H](CCC(=O)O)C(=O)N[C@@H](CC(=O)O)C(=O)N[C@@H](CCC(=O)O)C(=O)N[C@@H](CCC(=O)O)C(=O)N[C@@H](CC(C)C)C(N)=O [8M2D, Ac-dEEEDEEL-NH2] (Ac-[dD]EEEDEEL-NH2) ; Vd/F = 7.59

* * *

- Measurement description: PK analysis of 8M2D in transgenic mice (APPSWE), plasma
- Condition summary: mouse, in vivo, sc, 250 mg/kg, Day 13, Mean over the 10, 50 and 250 mg/kg doses (N 3), read-out: t1/2, Mean (converted)
- From the text: Pharmacokinetics (PK) of 8M2D was further analyzed with various doses at days 1 and 13 in transgenic mice (APPSWE (B6; SJL 2576 Kha; Taconic)). See Hsiao et al., Correlative memory deficits, Aβ elevation, and amyloid plaques in transgenic mice. Science 274:99-102 (1996); and Haugabook et al., Reduction of Abeta accumulation in the Tg2576 animal model of Alzheimer's disease after oral administration of the phosphatidyl-inositol kinase inhibitor wortmannin. Faseb J 15:16-18 (2001).
Square brackets hold non-standard residues; d marks the D form. Peptide text beside a SMILES is read from it.
Value kind: half-life (h)
Numbers only, in h.

According to the records, this molecule CC(=O)N[C@H](CC(=O)O)C(=O)N[C@@H](CCC(=O)O)C(=O)N[C@@H](CCC(=O)O)C(=O)N[C@@H](CCC(=O)O)C(=O)N[C@@H](CC(=O)O)C(=O)N[C@@H](CCC(=O)O)C(=O)N[C@@H](CCC(=O)O)C(=O)N[C@@H](CC(C)C)C(N)=O [8M2D, Ac-dEEEDEEL-NH2] (Ac-[dD]EEEDEEL-NH2) displays half-life of 56.5

* * *

- Measurement description: PK analysis of 8M2D in transgenic mice (APPSWE), plasma
- Condition summary: mouse, in vivo, sc, 10 mg/kg, Day 1, 10 mg/kg, read-out: Tmax
Square brackets hold non-standard residues; d marks the D form. Peptide text beside a SMILES is read from it.
Value kind: Tmax (min)
One number for each entry, in min.

response.value for CC(=O)N[C@H](CC(=O)O)C(=O)N[C@@H](CCC(=O)O)C(=O)N[C@@H](CCC(=O)O)C(=O)N[C@@H](CCC(=O)O)C(=O)N[C@@H](CC(=O)O)C(=O)N[C@@H](CCC(=O)O)C(=O)N[C@@H](CCC(=O)O)C(=O)N[C@@H](CC(C)C)C(N)=O [8M2D, Ac-dEEEDEEL-NH2] (Ac-[dD]EEEDEEL-NH2) (field: Tmax) = 10.2
